Where do these numbers come from? They come from PubChem BioAssay AID624129.

experimental system: C-C chemokine receptor type 6 (Homo sapiens) (UniProt P51684)
method summary: potency against CXCR6 with APJ panel – cell-based, beta-arrestin, DiscoveRx, uHTS hits, dose response (AID 624129)
measurement setup: CXCR6 beta-arrestin (DiscoveRx) antagonist cell assay, CCR6, run 2, dose range 1
Recorded pIC50 by entry
The scale used: pIC50 is minus the common logarithm of the concentration in molar units.

A selection of reference data follows.
C=C(CN(C)C)C(=O)c1ccc(C)cc1C :: 4.49
CCCC(=O)OCCNc1cc(Sc2nccn2C)c2nonc2c1[N+](=O)[O-] :: 5.36
C=CCn1nc([N+](=O)[O-])nc1Sc1cccc2cccnc12 :: 4.50
C=C1CC(COc2cc(=O)oc3ccccc23)(c2ccccc2)OC1=O (stereo unspecified) :: 5.13
COc1cc(/C=C/c2ccc3c(Br)cc(Br)c(O)c3n2)ccc1O :: 4.94

Next compound, pIC50 to be filled in.
Inquiry: Using the record for CCC(=O)OCOc1ccc(/C=C2/CCC(CN(C)C)C2=O)cc1 (stereo unspecified) , report its pIC50.
Reply text: 4.93

* * *

experimental system: C-X-C chemokine receptor type 6 (Homo sapiens) (UniProt O00574)
Sequence (O00574 whole entry, looked up): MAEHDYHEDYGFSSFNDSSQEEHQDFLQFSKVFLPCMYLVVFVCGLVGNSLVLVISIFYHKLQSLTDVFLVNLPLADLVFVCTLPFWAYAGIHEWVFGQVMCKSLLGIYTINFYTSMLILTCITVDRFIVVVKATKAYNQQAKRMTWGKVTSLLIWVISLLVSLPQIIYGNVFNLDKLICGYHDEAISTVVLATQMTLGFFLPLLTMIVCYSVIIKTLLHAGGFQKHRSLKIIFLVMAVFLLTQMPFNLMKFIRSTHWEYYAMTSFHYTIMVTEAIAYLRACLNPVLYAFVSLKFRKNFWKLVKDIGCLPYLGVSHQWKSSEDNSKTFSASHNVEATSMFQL
method summary: potency against CXCR6 with APJ panel – cell-based, beta-arrestin, DiscoveRx, uHTS hits, dose response (AID 624129)
measurement setup: CXCR6 beta-arrestin (DiscoveRx) antagonist cell assay, CXCR6, dose range 1, mean IC50 across replicates
Recorded log10 IC50 by entry
Hey, these are logged values: log10 of IC50, µM being the unit before logging.

A selection of reference data follows.
Nc1ccccc1C#CC(=O)c1ccccc1 :: 1.17
COc1ccc(-c2nn(C)c(=O)c3ccccc23)cc1NC(=O)Cn1nc(C)c2ccccc2c1=O :: 1.54
Nc1cc(Cl)c2nonc2c1[N+](=O)[O-] :: 0.92
Cc1ccc(-c2oc3ccccc3c(=O)c2O)cc1 :: 0.84
O=C1C=CC2(C=C1)O[C@H](Cc1ccccc1)[C@@H](Cc1ccccc1)O2 :: 0.92

Next molecule, log10 IC50 to be filled in.
Inquiry: Using the record for COc1ccccc1C(=O)NNC(=S)NC(=O)c1cccs1 , report its log10 IC50.
Reply text: 1.18

* * *

experimental system: UniProt:P51684
method summary: potency against CXCR6 with APJ panel – cell-based, beta-arrestin, DiscoveRx, uHTS hits, dose response (AID 624129)
measurement setup: CXCR6 beta-arrestin (DiscoveRx) antagonist cell assay, CCR6, run 2, dose range 1
Recorded log10 IC50 by entry
Hey, these are logged values: log10 of IC50, µM being the unit before logging.

A selection of reference data follows.
O=C(c1nnsc1S(=O)c1ccc(Cl)cc1)N1CCOCC1 (configuration not stated) :: 1.74
C=C1C(=O)OC2C1CCC(C)=C1C(=O)C3OC3(C)C12 (configuration not stated) :: 0.86
CC(=O)OCCCNc1cc(Sc2nc3ccccc3s2)c2nonc2c1[N+](=O)[O-] :: 1.73
O=C(Nc1ccccc1Cl)/C(Cl)=C(\Cl)S(=O)c1ccccc1 (configuration not stated) :: 0.91
CC(=O)Nc1ccc(Sc2ccc([N+](=O)[O-])o2)cc1 :: 0.93

Inquiry: API: value(readout=log10 IC50, system=UniProt:P51684) for record Oc1cccc2ccc(/C=C/c3cccs3)nc12
Reply text: 0.87

Inquiry: API: value(readout=log10 IC50, system=UniProt:P51684) for record CCN1/C(=C\C=C2\C(=O)N(c3ccccc3)C(=S)N2C)Sc2ccccc21
Reply text: 0.78

Inquiry: API: value(readout=log10 IC50, system=UniProt:P51684) for record Cc1ccc(/C=N/NC(=S)N2CCOCC2)cc1
Reply text: 0.69

Inquiry: API: value(readout=log10 IC50, system=UniProt:P51684) for record COCc1cc(=O)[nH]c(Nc2nc3ccc(C)cc3o2)n1
Reply text: 0.71

* * *

experimental system: Apelin receptor (Homo sapiens)
method summary: potency against CXCR6 with APJ panel – cell-based, beta-arrestin, DiscoveRx, uHTS hits, dose response (AID 624129)
measurement setup: CXCR6 beta-arrestin (DiscoveRx) antagonist cell assay, APJ, dose range 1
Activity calls are given as the source filed them. The rule behind the calls is not given here.
Could you please pick one outcome from this set? true (active), false (inactive)

Observe how each entry below is paired with its result.
CC(C)N=C1CCCC1C(=S)SSC(=S)C1CCCC1=NC(C)C (configuration not stated) :: true
Cc1ccc2c(Cl)cc(Cl)c(O)c2n1 :: true
O=C(NNC(=O)C12CC3CC(CC(C3)C1)C2)c1ccccn1 :: true
C=C(CN(C)C)C(=O)c1ccc(OC2OC(COC(C)=O)C(OC(C)=O)C(OC(C)=O)C2OC(C)=O)cc1 (configuration not stated) :: true
COc1ccc(/C=C/c2ccc3cccc(O)c3n2)c(OC)c1OC :: true

Inquiry: What did the test return for O=C(c1nnsc1S(=O)c1ccc(Cl)cc1)N1CCOCC1 (configuration not stated) ?
Reply text: true

Inquiry: What did the test return for CCN(CC)CC(C)(C)C(=O)/C=C/c1ccc(/C=C/C(=O)C(C)(C)CN(CC)CC)cc1 ?
Reply text: true

Inquiry: What did the test return for O=C(C#Cc1ccccc1)c1ccco1 ?
Reply text: true

Inquiry: What did the test return for COc1ccc(N2C(=O)CC(Sc3nnnn3-c3ccc(F)cc3)C2=O)cc1 (configuration not stated) ?
Reply text: true

Inquiry: What did the test return for CC(=O)Nc1ccc(Sc2ccc([N+](=O)[O-])o2)cc1 ?
Reply text: true

Inquiry: What did the test return for COc1ccc(C(=O)/C(=C\c2ccco2)N2C=CC=CC2=C(C#N)C#N)cc1 ?
Reply text: true

Inquiry: What did the test return for Fc1ccc(Sc2nc(-c3ccccc3)nnc2C(F)(F)F)cc1 ?
Reply text: false

Inquiry: What did the test return for Cc1[nH]n(-c2ccccc2)c(=S)c1C=NCCCN=Cc1c(C)[nH]n(-c2ccccc2)c1=S ?
Reply text: true

Inquiry: What did the test return for CCOC(=O)CSc1cccc2cccnc12 ?
Reply text: true

* * *

experimental system: C-X-C chemokine receptor type 6 (Homo sapiens) (UniProt O00574)
method summary: potency against CXCR6 with APJ panel – cell-based, beta-arrestin, DiscoveRx, uHTS hits, dose response (AID 624129)
measurement setup: CXCR6 beta-arrestin (DiscoveRx) antagonist cell assay, CXCR6, run 2, dose range 1
reported property: pIC50
The scale used: pIC50 is minus the common logarithm of the concentration in molar units.

A selection of reference data follows.
O=C(N/N=C(\c1ccccc1)c1cccnc1)c1cccc(F)c1 :: 5.29
CCc1ccccc1OCC(=O)Nc1nc(-c2cccnc2)cs1 :: 4.77
N#CC(C#N)=C1C=CC=CN1/C(=C\c1ccccc1Cl)C(=O)c1ccccc1 :: 5.10

Inquiry: Using the record for CC(C)N=C1CCCC1C(=S)SSC(=S)C1CCCC1=NC(C)C (stereo unspecified) , report its pIC50.
Reply text: 4.75

Inquiry: Using the record for CCN1/C(=C\C=C2\C(=O)N(c3ccccc3)C(=S)N2C)Sc2ccccc21 , report its pIC50.
Reply text: 5.30

Inquiry: Using the record for Cc1cc(Cl)n2c(nc3cc(F)c(F)cc32)c1C#N , report its pIC50.
Reply text: 4.28

* * *

experimental system: Apelin receptor (Homo sapiens)
method summary: potency against CXCR6 with APJ panel – cell-based, beta-arrestin, DiscoveRx, uHTS hits, dose response (AID 624129)
measurement setup: CXCR6 beta-arrestin (DiscoveRx) antagonist cell assay, APJ, run 3, dose range 1
reported property: IC50 (µM)
Value expressed in µM; do not type the unit.

A selection of reference data follows.
COc1cc(/C=C/c2ccc3cccc(O)c3n2)cc(OC)c1OC :: 6.51
Fc1ccc(NC(=S)Nc2nccs2)cc1 :: 13.3
CC(Oc1cccc(Cl)c1)C(=O)Nc1nc(-c2ccccn2)cs1 (configuration not stated) :: 8.64
Cc1ccc(C(=O)Sc2cccccc2=O)cc1 :: 1.52

Inquiry: Using the record for C=CS(=O)(=O)c1c2cc(OC)ccc2nc2ccc(OC)cc12 , report its IC50.
Reply text: 20.2

Inquiry: Using the record for COc1ccc(OC)c(/C=C/c2ccc3cccc(O)c3n2)c1 , report its IC50.
Reply text: 8.46

Inquiry: Using the record for S=C(NCCCN1CCOCC1)Nc1ccc(Cl)cc1 , report its IC50.
Reply text: 13.7

Inquiry: Using the record for CC(=O)OCCNc1cc(SCc2ccco2)c2nonc2c1[N+](=O)[O-] , report its IC50.
Reply text: 17.5

* * *

experimental system: C-X-C chemokine receptor type 6 (Homo sapiens)
method summary: potency against CXCR6 with APJ panel – cell-based, beta-arrestin, DiscoveRx, uHTS hits, dose response (AID 624129)
measurement setup: CXCR6 beta-arrestin (DiscoveRx) antagonist cell assay, CXCR6, run 2, dose range 1
reported property: IC50 (µM)
Value expressed in µM; do not type the unit.

CN(C)c1nc(=NCc2ccco2)ss1 :: 33.6
O=Cc1s/c(=N\S(=O)(=O)c2ccccc2)n(CCCCl)c1Cl :: 4.89
C=C(CN(C)C)C(=O)c1ccc(C)cc1C :: 25.5
O=C(C#Cc1ccccc1)c1ccc([N+](=O)[O-])cc1 :: 2.57
CNc1cc(Cl)c2nonc2c1[N+](=O)[O-] :: 4.12

Inquiry: Using the record for Cc1[nH]n(-c2ccccc2)c(=S)c1C=NCCCN=Cc1c(C)[nH]n(-c2ccccc2)c1=S , report its IC50.
Reply text: 2.07

Inquiry: Using the record for On1ccccc1=S , report its IC50.
Reply text: 17.3
